Measured values drawn from ChEMBL document CHEMBL1201862 for this set.

test system: HT-29; test: NCI tumour cell line growth inhibition, 48 h
The source made the active and inactive calls. No stated cut-off is given here; in the data, active = GI50 up to about 1.1 µM and inactive = higher.
property_label: GI50

Give HT-29 GI50 for CC(C)[C@H](C)/C=C/[C@@H](C)C1CC[C@H]2[C@@]34C=C[C@]5(C[C@@H](O)CC[C@]5(C)[C@H]3CC[C@]12C)OO4 (stereo not given in full)
23.3 µM (inactive)

Give HT-29 GI50 for "CCOC(=O)c1nc2ccc(C(F)(F)F)cc2nc1Oc1ccc(OC)cc1"
> 100 µM (inactive)

Give HT-29 GI50 for "Nc1nc(-c2ccco2)cc(-c2ccco2)n1"
> 100 µM (inactive)

Give HT-29 GI50 for "Cn1c(=O)c(/N=N/c2c(=O)n(C)c(=O)n3c2[nH]c2ccccc23)c2[nH]c3ccccc3n2c1=O"
> 100 µM (inactive)

Give HT-29 GI50 for "O/N=C\c1c2c(cc3c1CCC3)CCC2"
> 100 µM (inactive)
